As shown below, each of these compounds has a reported hERG current change (%, negative = inhibition) at 10uM value.
target: human ether-à-go-go-related gene (hERG) potassium channel (human); assay: primary screen, population patch clamp on CHO cells stably expressing hERG; higher = less effect of the substance
Hit rate of the full screen: of about 310,000 compounds, about 14,000 (4.5%) showed an effect of 50% or more. The effect is printed as a negative number. Shown is part of a subset that was picked to be rich in strong results.
Your answer should be a plain number; it is taken to be in %.

{"columns": ["COMPOUND", "TARGET_OR_TEST_SYSTEM", "QUANTITATIVE_READOUT"],
 "data": [
  ["COc1ccc(-c2[nH]ncc2CN2CCC(OCc3ccccc3)CC2)c(F)c1", "human ether-à-go-go-related gene (hERG) potassium channel (human)", -80.7]
]}

Please tell me: hERG current change (%, negative = inhibition) at 10uM of "COc1ccc(NS(=O)(=O)c2cccc(C(=O)NNC(=O)CNC(=O)c3ccc(C)cc3)c2)cc1" , system human ether-à-go-go-related gene (hERG) potassium channel (human)?
-2.64

Notebook entry, human ether-à-go-go-related gene (hERG) potassium channel (human) assay: hERG current change (%, negative = inhibition) at 10uM of "COc1ccccc1/C=N/Nc1nc(C)c(C(C)=O)s1" = ?
5

Entry "CCOC(=O)c1cnn(Cc2ccccc2Cl)c1N" , system human ether-à-go-go-related gene (hERG) potassium channel (human): what hERG current change (%, negative = inhibition) at 10uM was measured?
-11

What value of hERG current change (%, negative = inhibition) at 10uM on human ether-à-go-go-related gene (hERG) potassium channel (human) does "COc1ccc(-c2[nH]ncc2CN2CCC(OCc3cccnc3)CC2)c(F)c1" have?
-37.1

Hi! What's the reported hERG current change (%, negative = inhibition) at 10uM for COc1ccc(OC)c(-c2nc(CN3CCCCC3c3cccnc3)c(C)o2)c1 (centres unmarked) on human ether-à-go-go-related gene (hERG) potassium channel (human)?
-1.11

----------
biological target: human ether-à-go-go-related gene (hERG) potassium channel (human, UniProt Q12809); assay: primary screen, population patch clamp on CHO cells stably expressing hERG; higher = less effect of the substance;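 note: peak tail current of the secondary pulse compared with the same well before compound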
Sequence (Q12809 whole entry, looked up): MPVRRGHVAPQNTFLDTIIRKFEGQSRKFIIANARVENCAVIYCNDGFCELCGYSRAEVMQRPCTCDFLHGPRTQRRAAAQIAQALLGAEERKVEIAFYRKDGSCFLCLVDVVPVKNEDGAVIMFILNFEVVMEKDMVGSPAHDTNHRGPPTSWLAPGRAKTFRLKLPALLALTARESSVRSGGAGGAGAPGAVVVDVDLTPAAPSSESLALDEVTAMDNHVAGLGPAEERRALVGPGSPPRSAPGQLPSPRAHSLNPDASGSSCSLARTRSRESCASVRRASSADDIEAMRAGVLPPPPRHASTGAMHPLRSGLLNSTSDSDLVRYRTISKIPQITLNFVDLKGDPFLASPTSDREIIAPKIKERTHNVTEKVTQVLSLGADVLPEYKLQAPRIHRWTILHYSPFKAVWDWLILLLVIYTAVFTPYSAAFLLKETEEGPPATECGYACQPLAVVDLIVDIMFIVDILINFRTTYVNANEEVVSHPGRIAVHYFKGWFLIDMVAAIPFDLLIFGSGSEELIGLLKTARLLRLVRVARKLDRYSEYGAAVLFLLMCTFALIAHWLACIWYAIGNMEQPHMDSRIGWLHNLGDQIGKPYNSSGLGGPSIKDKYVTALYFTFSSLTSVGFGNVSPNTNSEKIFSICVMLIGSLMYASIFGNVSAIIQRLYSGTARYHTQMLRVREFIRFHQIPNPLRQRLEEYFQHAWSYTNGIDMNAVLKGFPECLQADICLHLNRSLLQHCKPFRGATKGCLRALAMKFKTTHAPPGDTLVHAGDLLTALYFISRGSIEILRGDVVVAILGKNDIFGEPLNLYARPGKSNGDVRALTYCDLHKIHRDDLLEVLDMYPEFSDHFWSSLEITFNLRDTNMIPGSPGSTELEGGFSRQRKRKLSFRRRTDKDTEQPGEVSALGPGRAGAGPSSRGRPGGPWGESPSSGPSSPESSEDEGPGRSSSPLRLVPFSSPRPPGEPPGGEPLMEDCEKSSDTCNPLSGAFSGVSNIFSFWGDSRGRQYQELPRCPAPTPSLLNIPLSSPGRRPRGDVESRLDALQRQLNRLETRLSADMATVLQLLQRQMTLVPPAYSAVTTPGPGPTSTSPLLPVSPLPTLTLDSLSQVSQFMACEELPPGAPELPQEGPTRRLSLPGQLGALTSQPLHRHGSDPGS
Among all 310,000 compounds or so, about 14,000 (4.5%) showed an effect of 50% or more. Effects have a minus sign here. This excerpt belongs to a sample that is enriched for strong results.
ASSAY_ENDPOINT: hERG current change (%, negative = inhibition) at 10uM
Give the figure together with its unit, number first.

{"columns": ["MOLECULE", "RESULT"],
 "data": [
  ["CC1CC(C)CN(C(=O)c2cc(-c3ccccn3)nc3ccccc23)C1 (stereo not shown)", "-6.19%"],
  ["CCCC(=O)c1ccc(N2CCCCC2)c(F)c1", "10.5%"],
  ["CCCC(=O)c1ccc(N2CCN(C(=O)c3cccs3)CC2)c(F)c1", "-75.1%"],
  ["Cc1ccc(-c2cc(C(=O)NC3CCN(Cc4ccccc4)CC3)c3ccccc3n2)cc1", "7.42%"],
  ["CCc1ccccc1S(=O)(=O)Cc1ccc(C(=O)NCc2cccs2)o1", "-22.5%"],
  ["CCC(=O)c1ccc(N2CCN(C(=O)c3ccccc3F)CC2)c(F)c1", "-20.7%"],
  ["CCC(=O)c1ccc(N2CCN(C(=O)c3cccs3)CC2)c(F)c1", "-51.6%"],
  ["CCOC(=O)C1C(c2ccccc2O)NC(=O)NC1(O)C(F)(F)F (stereo not shown)", "16.9%"],
  ["CC1CCN(CC(C)CNC(=O)c2cc(-c3ccccn3)nc3ccccc23)CC1 (stereo not shown)", "-62.5%"]
]}

What value of hERG current change (%, negative = inhibition) at 10uM has been reported for the following molecule? CC1Sc2ccc(S(=O)(=O)NCCc3ccccc3)cc2NC1=O (stereo not shown)
12.5%

----------
target: human ether-à-go-go-related gene (hERG) potassium channel (human); test: primary screen, population patch clamp on CHO cells stably expressing hERG; higher = less effect of the substance;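 note: peak tail current of the secondary pulse compared with the same well before compound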
Hit rate of the full screen: of about 310,000 compounds, about 14,000 (4.5%) showed an effect of 50% or more. Effects have a minus sign here. For the sample, strong results were picked, then their nearest neighbours and some compounds at random.
Examples of compounds with documented hERG current change (%, negative = inhibition) at 10uM follow.
Give the figure together with its unit, number first.

{"columns": ["COMPOUND", "RESULT"],
 "data": [
  ["Cc1cccn2c(=O)c3cc(C(=O)NCCc4ccccc4)c(=N)n(CCCn4ccnc4)c3nc12", "-74.4%"],
  ["O=S(=O)(Cc1ccccc1)N1CCn2c(nc3ccccc32)C1", "9.91%"],
  ["CC(=O)Nc1ccc(NS(=O)(=O)c2cc(Cl)ccc2Cl)cc1", "-14.8%"],
  ["Cc1cc(N2CCOCC2)n2nc(C)c(-c3ccccc3)c2n1", "9.17%"],
  ["Cc1cccn2c(=O)c3cc(C(=O)NCCCn4ccnc4)n(C)c3nc12", "-11%"]
]}

Note: attention shifts to another entry.
May I ask what hERG current change (%, negative = inhibition) at 10uM has been recorded for "Cc1cc(N2CCOCC2)n2cc(-c3ccccc3)nc2n1" ?
-50.1%

----------
target: human ether-à-go-go-related gene (hERG) potassium channel (human, UniProt Q12809); assay: primary screen, population patch clamp on CHO cells stably expressing hERG; higher = less effect of the substance;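 note: peak tail current of the secondary pulse compared with the same well before compound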
Out of some 310,000 compounds screened, about 14,000 (4.5%) showed an effect of 50% or more. The effect is printed as a negative number. Many of the other results were omitted from the sample, so strong results are more common in it than they were.
Assign criterion met whenever hERG current change (%, negative = inhibition) at 10uM does not fall below -10%; assign criterion not met whenever it does.

{"columns": ["MOLECULE", "CATEGORY"],
 "data": [
  ["COc1ccc(OC)c(CN2CCCC(C(=O)c3sccc3C)C2)c1 (stereo not drawn)", "criterion not met"],
  ["Cc1ccc(N(CC(=O)N/N=C/c2cccs2)S(C)(=O)=O)cc1", "criterion met"],
  ["COc1cc(CN2CCCC(C(=O)c3sccc3C)C2)cc(Cl)c1O (stereo not drawn)", "criterion not met"],
  ["Cc1ccc(CN2CCCC(C(=O)c3sccc3C)C2)o1 (stereo not drawn)", "criterion not met"],
  ["COCc1ccc(CN2CCCC(C(=O)c3sccc3C)C2)o1 (stereo not drawn)", "criterion met"]
]}

Read the next record carefully.
Does hERG current change (%, negative = inhibition) at 10uM meet or surpass -10% for COc1ccc(O)c(CN2CCCC(C(=O)c3sccc3C)C2)c1 (stereo not drawn) ?
criterion met

----------
molecular target: human ether-à-go-go-related gene (hERG) potassium channel (human, UniProt Q12809); assay: primary screen, population patch clamp on CHO cells stably expressing hERG; higher = less effect of the substance;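 note: peak tail current of the secondary pulse compared with the same well before compound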
The campaign covered roughly 310,000 compounds. About 14,000 (4.5%) showed an effect of 50% or more. Effects have a minus sign here. For the sample, strong results were picked, then their nearest neighbours and some compounds at random.
Output Condition met for hERG current change (%, negative = inhibition) at 10uM not less than -30%; output Condition not met otherwise.

Check out these entries, answers already filled in.
{"columns": ["MOLECULE", "TARGET_OR_TEST_SYSTEM", "CATEGORY"],
 "data": [
  ["CC1CN(C(=O)CSc2nc(-c3ccccc3)cs2)CC(C)O1 (stereo not shown)", "human ether-à-go-go-related gene (hERG) potassium channel (human, UniProt Q12809)", "Condition met"],
  ["Cc1ccc(OCc2nnc(NC(=O)c3ccco3)s2)cc1", "human ether-à-go-go-related gene (hERG) potassium channel (human, UniProt Q12809)", "Condition met"],
  ["O=C(CSc1nc(-c2ccccc2)cs1)N1CCN(C(=O)c2ccco2)CC1", "human ether-à-go-go-related gene (hERG) potassium channel (human, UniProt Q12809)", "Condition not met"],
  ["O=C(CSc1nc(-c2ccc(F)cc2)cs1)N1CCOCC1", "human ether-à-go-go-related gene (hERG) potassium channel (human, UniProt Q12809)", "Condition met"],
  ["O=C(c1ccco1)N1CCN(c2nc(-c3ccc(F)cc3)cs2)CC1", "human ether-à-go-go-related gene (hERG) potassium channel (human, UniProt Q12809)", "Condition not met"],
  ["COc1ccc(OCCN(C)Cc2ccccc2)cc1", "human ether-à-go-go-related gene (hERG) potassium channel (human, UniProt Q12809)", "Condition not met"],
  ["CN(CCOc1ccc(Cl)cc1)Cc1cccc(S(=O)(=O)N(C)C)c1", "human ether-à-go-go-related gene (hERG) potassium channel (human, UniProt Q12809)", "Condition not met"],
  ["CC(=O)Nc1ccc(S(=O)(=O)NNC(=O)c2cccc(Cl)c2)cc1", "human ether-à-go-go-related gene (hERG) potassium channel (human, UniProt Q12809)", "Condition met"]
]}

Please check the record NC(=O)C1CCCN(C(=O)c2ccc(Cl)cc2)C1 (stereo not shown) and state if its hERG current change (%, negative = inhibition) at 10uM is at or above -30%.
Condition met

Quick check, hERG current change (%, negative = inhibition) at 10uM >= -30%? "CCn1cc(C(=O)N2CCN(Cc3ccc4c(c3)OCO4)CC2)c(=O)c2ccc(C)nc21"
Condition met

Recorded values, source paper PMC4336329.
